measurement_target: Carnitine O-palmitoyltransferase 1, muscle isoform (Homo sapiens, UniProt Q92523)
Sequence (Q92523 whole entry, canonical isoform): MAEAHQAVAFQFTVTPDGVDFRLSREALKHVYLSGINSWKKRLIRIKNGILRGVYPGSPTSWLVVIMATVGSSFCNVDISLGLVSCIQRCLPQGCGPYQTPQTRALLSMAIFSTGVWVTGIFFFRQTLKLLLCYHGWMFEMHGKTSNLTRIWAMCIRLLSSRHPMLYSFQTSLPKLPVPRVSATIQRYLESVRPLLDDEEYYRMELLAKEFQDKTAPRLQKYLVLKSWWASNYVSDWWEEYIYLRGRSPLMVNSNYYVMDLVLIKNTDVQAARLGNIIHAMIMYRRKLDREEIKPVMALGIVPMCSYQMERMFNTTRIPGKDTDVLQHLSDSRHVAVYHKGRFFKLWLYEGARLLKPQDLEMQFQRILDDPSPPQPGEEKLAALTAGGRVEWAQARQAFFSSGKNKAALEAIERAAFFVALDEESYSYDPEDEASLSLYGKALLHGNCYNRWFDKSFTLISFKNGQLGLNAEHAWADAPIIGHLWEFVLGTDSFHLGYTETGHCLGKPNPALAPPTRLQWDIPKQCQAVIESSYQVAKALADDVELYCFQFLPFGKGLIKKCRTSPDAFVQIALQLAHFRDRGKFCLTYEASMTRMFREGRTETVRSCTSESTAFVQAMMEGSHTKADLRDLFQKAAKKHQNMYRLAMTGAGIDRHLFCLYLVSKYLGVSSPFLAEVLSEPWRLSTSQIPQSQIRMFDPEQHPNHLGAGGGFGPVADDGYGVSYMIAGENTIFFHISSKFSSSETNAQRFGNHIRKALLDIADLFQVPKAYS
test_description: SUPPLEMENTARY: Inhibition of Carnitine palmitoyltransferase 1, muscle isoform
property_label: log10(IC50) (log10 of the value in µM)
# log10 transformed; quantity=IC50; unit=µM

Worked examples follow.
* CCNC(=O)Nc1cccc(-c2n[nH]c([C@H]3CCCCN3C(=O)COc3ccccc3)n2)c1 | 1.99
* COc1ccc(Cl)cc1S(=O)(=O)N1CC[S+]([O-])c2ccc(C(=O)Nc3ccc(CC(=O)O)cc3)cc21 (configuration not stated) | -0.59
* COc1ccc(Cl)cc1Cc1c[nH]c2ccc(C(=O)Nc3ccc(CC(=O)O)cc3)cc12 | -0.31
* COc1ccc(Cl)cc1S(=O)(=O)N(c1cc(C(=O)Nc2ccn(CC(=O)O)n2)cc2c1OCO2)C(C)C | 0.72

Please examine the following record next.
Exercise: Fill in the recorded log10(IC50) for this molecule, with Carnitine O-palmitoyltransferase 1, muscle isoform (Homo sapiens, UniProt Q92523) as test system: COc1ccc(Cl)cc1S(=O)(=O)N1CC(C(=O)O)Oc2ccc(C(=O)Nc3ccc(F)cc3)cc21 (configuration not stated)
Solution: 2.00
